These measurements were taken from PubChem BioAssay AID2060900.

# Test system: 521955-158-R2-J5-PDC complex spheroids, viability
# PROCEDURE DETAILS: Anticancer human tumor 521955-158-R2-J5-PDC patient-derived pancreatic carcinoma cell line growth inhibition [RAS]
# STATED CONDITIONS: second compound 1 µM; first compound 0.1 µM; stronger effect = lower value
Form field: viability, T/C (one value per entry).
Numeric only. Scale: %

CCN1CCN(Cc2ccc(Nc3ncc(F)c(-c4cc(F)c5nc(C)n(C(C)C)c5c4)n3)nc2)CC1 + C=CC(=O)N1CCN(c2nc(OCC3CCCN3C)nc3c(F)c(-c4nc(N)cc(C)c4C(F)(F)F)c(Cl)cc23)C(C)C1 = 75.6

compound CC1(O)CCCC1n1c(=O)c(C(F)F)cc2cnc(NC3CCN(S(C)(=O)=O)CC3)nc21 (configuration not stated) + C#Cc1c(F)ccc2cc(O)cc(-c3ncc4c(N5CC6CCC(C5)N6)nc(OCC56CCCN5CC(F)C6)nc4c3F)c12 , viability, T/C observed: 41.4

compound C=CC(=O)N1CCN(c2nc(OCC3CCCN3C)nc3c(F)c(-c4nc(N)cc(C)c4C(F)(F)F)c(Cl)cc23)C(C)C1 (configuration not stated) + C#Cc1c(F)ccc2cc(O)cc(-c3ncc4c(N5CC6CCC(C5)N6)nc(OCC56CCCN5CC(F)C6)nc4c3F)c12 , viability, T/C observed: 60.7

compound CC(=O)OC12COC1CC(O)C1(C)C(=O)C(O)C3=C(C)C(OC(=O)C(O)C(NC(=O)OC(C)(C)C)c4ccccc4)CC(O)(C(OC(=O)c4ccccc4)C21)C3(C)C (configuration not stated) + C=CC(=O)N1CCN(c2nc(OCC3CCCN3C)nc3c(F)c(-c4nc(N)cc(C)c4C(F)(F)F)c(Cl)cc23)C(C)C1 , viability, T/C observed: 32.3

compound NC1c2ccccc2OC12CCN(c1cnc3c(N4CCCc5ncccc54)n[nH]c3n1)CC2 (configuration not stated) + C=CC(=O)N1CCN(c2nc(OCC3CCCN3C)nc3c(F)c(-c4nc(N)cc(C)c4C(F)(F)F)c(Cl)cc23)C(C)C1 , viability, T/C observed: 61.4

compound CC(C)n1nc(-c2ccc3oc(N)nc3c2)c2c(N)ncnc21 + C#Cc1c(F)ccc2cc(O)cc(-c3ncc4c(N5CC6CCC(C5)N6)nc(OCC56CCCN5CC(F)C6)nc4c3F)c12 , viability, T/C observed: 8.36

compound O=C(c1ccc(F)c(F)c1Nc1ccc(I)cc1F)N1CC(O)([C@@H]2CCCCN2)C1 + C#Cc1c(F)ccc2cc(O)cc(-c3ncc4c(N5CC6CCC(C5)N6)nc(OCC56CCCN5CC(F)C6)nc4c3F)c12 , viability, T/C observed: 23.2

###

# System: 521955-158-R2-J5-PDC complex spheroids, viability
# PROCEDURE DETAILS: Anticancer human tumor 521955-158-R2-J5-PDC cell line growth inhibition [RAS];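 further: spheroids also contain HUVEC endothelial cells and mesenchymal stem cells as stroma; compound exposure lasted seven days before the viability read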
# STATED CONDITIONS: second compound 0.1 µM; first compound 10 µM; stronger effect = lower value
OBSERVABLE: viability, T/C (%)
Numeric only. Scale: %

C[C@@H](NC(=O)c1ncnc(N)c1Cl)c1ncc(C(=O)Nc2cc(C(F)(F)F)c(Cl)cn2)s1 + C=CC(=O)N1CCN(c2nc(OCC3CCCN3C)nc3c(F)c(-c4nc(N)cc(C)c4C(F)(F)F)c(Cl)cc23)C(C)C1 = 54.8
Cc1nc(N2CCC3(CC2)COC(C)C3N)c(CO)nc1Sc1ccnc(N)c1Cl (stereo not given) + C=CC(=O)N1CCN(c2nc(OCC3CCCN3C)nc3c(F)c(-c4nc(N)cc(C)c4C(F)(F)F)c(Cl)cc23)C(C)C1 = 54.1

So the reported viability, T/C for Cc1nc(N2CCC3(CC2)COC(C)C3N)c(CO)nc1Sc1ccnc(N)c1Cl (stereo not given) + C#Cc1c(F)ccc2cc(O)cc(-c3ncc4c(N5CC6CCC(C5)N6)nc(OCC56CCCN5CC(F)C6)nc4c3F)c12 , on 521955-158-R2-J5-PDC complex spheroids, viability, turned out to be 28.2

So the reported viability, T/C for CC(=O)OC12COC1CC(O)C1(C)C(=O)C(O)C3=C(C)C(OC(=O)C(O)C(NC(=O)OC(C)(C)C)c4ccccc4)CC(O)(C(OC(=O)c4ccccc4)C21)C3(C)C (stereo not given) + C#Cc1c(F)ccc2cc(O)cc(-c3ncc4c(N5CC6CCC(C5)N6)nc(OCC56CCCN5CC(F)C6)nc4c3F)c12 , on 521955-158-R2-J5-PDC complex spheroids, viability, turned out to be 40.4

So the reported viability, T/C for CCC(CC)c1cc(NC2CCC(N)C2)n2nccc2n1 (stereo not given) + C#Cc1c(F)ccc2cc(O)cc(-c3ncc4c(N5CC6CCC(C5)N6)nc(OCC56CCCN5CC(F)C6)nc4c3F)c12 , on 521955-158-R2-J5-PDC complex spheroids, viability, turned out to be 12.2
